- test system: A*6802 (Homo sapiens, UniProt P04439, A269V/D140Y/D185E/E176V/E277Q/E87N/F33Y/G231S/I121R/I166T/I218V/L180W/L300P/L318F/N151K/P208A/P217A/Q86R/R138H/R169H/S129P/T345S/V36M)
- test protocol: biochemical
- Assay type: binding
No end group written: not given here.
endpoint name: pIC50
Scale note: pIC50 = -log10(concentration in M).

Prompt: Consider the sequence LTNTGLYNL [Peptide 1481.17] and give its measured pIC50.
Response: 5.80

Prompt: Consider the sequence LLTFWNPPTV [Peptide 9013.0120] and give its measured pIC50.
Response: 6.22

Prompt: Consider the sequence QQIEFVSFL [Peptide 1578.16] and give its measured pIC50.
Response: 7.36

Prompt: Consider the sequence RLENAILFTV [Peptide 1593.60] and give its measured pIC50.
Response: 4.80

---
Prompt: Consider the sequence VLAEAMSKA [Peptide 1539.07] and give its measured pIC50.
Response: 5.34

Prompt: Consider the sequence AQYSWFVNGV [Peptide 9013.0172] and give its measured pIC50.
Response: 4.92

---

- test system: DRB1*1501 (Homo sapiens, UniProt P01903+P01911)
- test protocol: biochemical
- Type: binding
No end group written: not given here.
endpoint name: pIC50
Scale note: pIC50 = -log10(concentration in M).

Record excerpt, results attached:
Prompt: Consider the sequence DSEIAYKYAQLADTN [Peptide 89.0012] and give its measured pIC50.
Response: 5.46

Prompt: Consider the sequence GLYYWCDGEKIYFVK [Peptide 90.0226] and give its measured pIC50.
Response: 5.89

Prompt: Consider the sequence EISFAGIVTKLPTAN [Peptide 89.0174] and give its measured pIC50.
Response: 5.09

Prompt: Consider the sequence TNCMLIQPPKLRSTA [Peptide 89.0046] and give its measured pIC50.
Response: 5.29

Prompt: Consider the sequence RVCLLFYSKVRKYRY [Peptide 1543.54] and give its measured pIC50.
Response: 6.14

Prompt: Consider the sequence DWCIIGMGVTPSVAE [Peptide 89.0096] and give its measured pIC50.
Response: 5.08

Prompt: Consider the sequence NTEVETQQMLQVEGR [Peptide 89.0002] and give its measured pIC50.
Response: 4.81

Prompt: Consider the sequence LIQLKCPPILLTTNI [Peptide 89.0038] and give its measured pIC50.
Response: 5.17

---
Prompt: Consider the sequence CMLIQPPKLRSTAAA [Peptide 89.0047] and give its measured pIC50.
Response: 5.58

---

- test system: DR1 (DRB1*0101) (Homo sapiens, UniProt P01903+P01911, A100R/D57E/F55L/F60I/F76Y/I96L/L162R/M171V/P40L/Q125E/R42F/V115G/Y59C)
- test protocol: biochemical
- Assay type: binding
Measured IC50 values are reported for all entries that follow.
Just the number please, in nM, no unit attached.

Prompt: Consider the molecule CC(C)[C@H](NC(=O)[C@@H]1CCCN1C(=O)[C@H](CCCCN)NC(=O)[C@H](CO)NC(=O)[C@H](CC(N)=O)NC(=O)[C@H](CC(N)=O)NC(=O)[C@H](CO)NC(=O)[C@H](CO)NC(=O)[C@H](Cc1c[nH]c2ccccc12)NC(=O)[C@H](CO)NC(=O)[C@@H]1CCCN1C(=O)[C@@H](N)CCCCN)C(=O)N[C@@H](CCC(=O)O)C(=O)N[C@@H](CC(=O)O)C(=O)N[C@@H](CCCCN)C(=O)O [Peptide 9014.0042] and give its measured IC50.
Response: 29

Prompt: Consider the molecule CC[C@H](C)[C@H](N)C(=O)N[C@@H](CCC(=O)O)C(=O)N[C@@H](Cc1ccccc1)C(=O)N[C@H](C(=O)N[C@H](C(=O)N[C@@H](Cc1ccccc1)C(=O)N[C@@H](CC(C)C)C(=O)NCC(=O)N[C@@H](C)C(=O)N[C@@H](CC(C)C)C(=O)N[C@@H](CCCCN)C(=O)N[C@@H](CO)C(=O)N[C@@H](Cc1ccccc1)C(=O)N[C@@H](CC(C)C)C(=O)N[C@@H](CCCCN)C(=O)O)[C@@H](C)O)[C@@H](C)CC [Peptide 89.0033] and give its measured IC50.
Response: 8.6

The reported numbers originate from patent US9340577B2.
